conditions: in MIBK, 313.15 K

{"columns": ["compound.structure.string", "solubility (mole fraction)"],
 "data": [
  ["CC1=NN(c2ccccc2)C(=O)C1", 0.0414]
]}

----------
settings: in n-propyl acetate, 308.15 K
measured.property: solubility (mole fraction)

{"columns": ["compound.structure.string", "observed.measurement"],
 "data": [
  ["CC1=NN(c2ccccc2)C(=O)C1", 0.0318]
]}

----------
settings: in ethyl lactate, 288.15 K

{"columns": ["compound.structure.string", "solubility (mole fraction)"],
 "data": [
  ["CC1=NN(c2ccccc2)C(=O)C1", 0.0319]
]}

----------
settings: in ethyl lactate, 303.15 K
measured.property: solubility (mole fraction)

{"columns": ["compound.structure.string", "measured.property", "observed.measurement"],
 "data": [
  ["CC1=NN(c2ccccc2)C(=O)C1", "solubility (mole fraction)", 0.0424]
]}

----------
conditions: in isopropyl acetate, 308.15 K

{"columns": ["compound.structure.string", "solubility (mole fraction)"],
 "data": [
  ["CC1=NN(c2ccccc2)C(=O)C1", 0.0223]
]}

----------
details: in dimethyl carbonate, 308.15 K

{"columns": ["compound.structure.string", "solubility (mole fraction)"],
 "data": [
  ["CC1=NN(c2ccccc2)C(=O)C1", 0.0316]
]}

----------
details: in methyl acetate, 323.15 K

{"columns": ["compound.structure.string", "solubility (mole fraction)"],
 "data": [
  ["CC1=NN(c2ccccc2)C(=O)C1", 0.0477]
]}

----------
settings: in n-hexane, 303.15 K

{"columns": ["compound.structure.string", "solubility (mole fraction)"],
 "data": [
  ["CC1=NN(c2ccccc2)C(=O)C1", 0.000662]
]}

----------
conditions: in MIBK, 318.15 K

{"columns": ["compound.structure.string", "solubility (mole fraction)"],
 "data": [
  ["CC1=NN(c2ccccc2)C(=O)C1", 0.0495]
]}
